- System: Bacillus spizizenii
- method_notes: Antibacterial activity against Bacillus subtilis ATCC 6633 assessed as growth inhibition measured after 24 hrs by two-fold broth dilution method
- Assay type: functional
- condition_description: ATCC 6633, 24 h
quantity_name: MIC (µM)
Numbers only; they are read as µM.

Asked: Reported MIC for Bacillus spizizenii, given `O=C(Nc1cc(C(F)(F)F)cc(C(F)(F)F)c1)[C@H](O)[C@@H](O)C(=O)N1CCC2(CCNC2=O)CC1` ?
Given back: 510

Asked: What about `Cc1ccc(NC(=O)[C@H](O)[C@@H](O)C(=O)N2CCC3(CCNC3=O)CC2)cc1` ?
Given back: 680

Asked: Likewise for `O=C(Nc1ccc(F)c(Cl)c1)[C@H](O)[C@@H](O)C(=O)N1CCC2(CCNC2=O)CC1` ?
Given back: 620

Asked: Also `O=C(Nc1ccc(Br)cc1)[C@H](O)[C@@H](O)C(=O)N1CCC2(CCNC2=O)CC1` , if possible.
Given back: 580

* * *

- Test system: Proteus vulgaris
- method_notes: Antibacterial activity against Bacillus proteus ATCC 8427 assessed as growth inhibition measured after 24 hrs by two-fold broth dilution method
- Format: functional
- condition_description: ATCC 8427, 24 h
# label = true if MIC < 300 µM else false

Asked: Please determine if `O=C(Nc1ccc(Cl)cc1)[C@H](O)[C@@H](O)C(=O)N1CCC2(CCNC2=O)CC1` is below 300 µM in terms of MIC.
Given back: false

Asked: Next record, please: `O=C(Nc1cc(C(F)(F)F)cc(C(F)(F)F)c1)[C@H](O)[C@@H](O)C(=O)N1CCC2(CCNC2=O)CC1`
Given back: false

Asked: Now consider `O=C(Nc1ccc(F)cc1F)[C@H](O)[C@@H](O)C(=O)N1CCC2(CCNC2=O)CC1` .
Given back: true

Asked: // repeat for `Cc1ccc(NC(=O)[C@H](O)[C@@H](O)C(=O)N2CCC3(CCNC3=O)CC2)cc1` and report
Given back: false

Asked: Now try `O=C(Nc1ccc(F)c(F)c1)[C@H](O)[C@@H](O)C(=O)N1CCC2(CCNC2=O)CC1` .
Given back: false

Asked: Similarly, `O=C(Nc1ccc(F)cc1)[C@H](O)[C@@H](O)C(=O)N1CCC2(CCNC2=O)CC1` ?
Given back: false

Asked: // query: `C[C@H]1COc2c(N3CCN(C)CC3)c(F)cc3c(=O)c(C(=O)O)cn1c23`
Given back: true

Asked: Also, `O=C(Nc1ccc(Br)cc1)[C@H](O)[C@@H](O)C(=O)N1CCC2(CCNC2=O)CC1` please.
Given back: false

# credit: ChEMBL document CHEMBL4359915
